Data provenance is ChEMBL document CHEMBL3991601.

target: Tyrosine-protein kinase Tec (Homo sapiens); further: in the data inactive means no Kd found up to 30 µM
Sequence (P42680 whole entry): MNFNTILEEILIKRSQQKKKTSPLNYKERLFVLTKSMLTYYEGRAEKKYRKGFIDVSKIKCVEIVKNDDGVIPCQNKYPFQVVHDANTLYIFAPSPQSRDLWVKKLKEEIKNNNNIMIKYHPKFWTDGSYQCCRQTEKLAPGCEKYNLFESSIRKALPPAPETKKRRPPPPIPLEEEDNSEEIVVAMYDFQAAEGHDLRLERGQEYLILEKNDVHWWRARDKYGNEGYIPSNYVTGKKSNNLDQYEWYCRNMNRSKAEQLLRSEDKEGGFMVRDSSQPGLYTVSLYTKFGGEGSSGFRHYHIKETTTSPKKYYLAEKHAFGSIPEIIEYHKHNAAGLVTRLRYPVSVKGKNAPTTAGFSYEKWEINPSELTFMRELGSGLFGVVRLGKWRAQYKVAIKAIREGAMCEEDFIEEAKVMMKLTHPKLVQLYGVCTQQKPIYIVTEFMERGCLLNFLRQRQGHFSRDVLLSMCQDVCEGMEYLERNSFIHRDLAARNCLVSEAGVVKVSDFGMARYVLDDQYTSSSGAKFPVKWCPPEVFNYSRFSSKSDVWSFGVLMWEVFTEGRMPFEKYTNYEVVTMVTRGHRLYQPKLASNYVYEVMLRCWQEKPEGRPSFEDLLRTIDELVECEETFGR
Structures can show the parent of a compound that is named as a salt. Active and inactive are the calls of the source.
Labels: active, inactive

| compound | label |
| --- | --- |
| CC(C)c1cc(CNc2nc(Nc3cc(C4CC4)[nH]n3)cc(N3CCN(C)CC3)n2)on1 | active |
| CC(C)(C)c1nc(-c2cccc(NS(=O)(=O)c3c(F)cccc3F)c2F)c(-c2ccnc(N)n2)s1 | inactive |
| Cc1nc(NC(=O)N2CCC[C@H]2C(N)=O)sc1-c1ccnc(C(C)(C)C(F)(F)F)c1 | inactive |
| NC1(c2ccc(-c3nc4ccn5c(=O)[nH]nc5c4cc3-c3ccccc3)cc2)CCC1 | inactive |
| N#CC1(c2ccc(NC(=O)c3cccnc3NCc3ccncc3)cc2)CCCC1 | inactive |
| Cc1cc(C(=O)NOCCO)c(Nc2ccc(I)cc2F)n(C)c1=O | inactive |
| C[C@H]1CNCCCN1S(=O)(=O)c1cccc2cncc(F)c12 | inactive |
| NC(=O)c1c(OCc2c(F)cc(Br)cc2F)nsc1NC(=O)NCCCCN1CCCC1 | inactive |
| CO[C@H]1C[C@@H]2CC[C@@H](C)[C@@](O)(O2)C(=O)C(=O)N2CCCC[C@H]2C(=O)O[C@H]([C@H](C)C[C@@H]2CC[C@@H](OP(C)(C)=O)[C@H](OC)C2)CC(=O)[C@H](C)/C=C(\C)[C@@H](O)[C@@H](OC)C(=O)[C@H](C)C[C@H](C)/C=C/C=C/C=C/1C | inactive |
| CCS(=O)(=O)N1CCN(c2ccc(Nc3ncc(C(N)=O)c(NC4CC4)n3)cc2)CC1 [Cerdulatinib Hydrochloride] | inactive |
| CCCCCCCCCCCCCCCCCCOP(=O)([O-])OC1CC[N+](C)(C)CC1 | inactive |
| Cc1cc(Nc2ncc(Cl)c(Nc3ccccc3S(=O)(=O)C(C)C)n2)c(OC(C)C)cc1C1CCNCC1 | inactive |
| O=C(Cc1ccc(-c2ccc(OCCN3CCOCC3)cc2)cn1)NCc1ccccc1 | inactive |
| Cn1cc(-c2cnc3ccc4ccc(CS(=O)(=O)NCc5ccccn5)cc4c(=O)c3c2)cn1 | inactive |
| CN1CCN(CCOc2cc(OC3CCOCC3)c3c(Nc4c(Cl)ccc5c4OCO5)ncnc3c2)CC1 | inactive |
| Cn1cnc2c(F)c(Nc3ccc(Br)cc3F)c(C(=O)NOCCO)cc21 | inactive |
| Cc1cnc(NC(=O)Nc2cc(Br)c(C)cc2OC[C@@H]2CNCCO2)cn1 | inactive |
| Nc1ncnc2c1c(-c1cccc(OCc3ccccc3)c1)cn2[C@H]1C[C@@H](CN2CCC2)C1 | inactive |
| CC(=O)NCC(=O)N1[C@@H]2CC[C@H]1c1ccc(Nc3ncc(C(F)(F)F)c(NC4CCC4)n3)cc12 | active |
| CNC(=O)c1nn(C)c2c1C(C)(C)Cc1cnc(Nc3ccc(N4CCN(C)CC4)cc3)nc1-2 | inactive |
| COCC(=O)NC/C=C/c1ccc2ncnc(Nc3ccc(Oc4ccc(C)nc4)c(C)c3)c2c1 | inactive |
| COc1cc([C@@H]2c3cc4c(cc3[C@H](O)[C@H]3COC(=O)[C@@H]23)OCO4)cc(OC)c1OC | inactive |
| CCOc1cc2ncc(C#N)c(Nc3ccc(F)c(Cl)c3)c2cc1NC(=O)/C=C/CN(C)C | inactive |
| O=C1NC(=O)[C@@H](c2cn3c4c(cccc24)CCC3)[C@@H]1c1c[nH]c2ccccc12 [TIVANTINIB] | inactive |
| O=c1[nH]ccc2cc(OC3CCNCC3)ccc12 [SAR-407899 FREE BASE] | inactive |
| Cc1nc(Nc2n[nH]c3c2CN(C(=O)N[C@H](CN(C)C)c2ccccc2)C3(C)C)c2sccc2n1 | active |
| Cc1[nH]c(/C=C2\C(=O)Nc3ccccc32)c(C)c1CCC(=O)O [ORANTINIB] | inactive |
| CO[C@H]1C[C@@H]2CC[C@@H](C)[C@@](O)(O2)C(=O)C(=O)N2CCCC[C@H]2C(=O)O[C@H]([C@H](C)C[C@@H]2CC[C@@H](O)[C@H](OC)C2)CC(=O)[C@H](C)/C=C(\C)[C@@H](O)[C@@H](OC)C(=O)[C@H](C)C[C@H](C)/C=C/C=C/C=C/1C | inactive |
| COc1cc2ncnc(Oc3cccc(NC(=O)Nc4cc(C(C)(C)C(F)(F)F)on4)c3)c2cc1OC | inactive |
